Consider the following sequences and their measured apparent KD of MS2 coat protein readings.
test system: MS2 coat protein; test: apparent KD of MS2 coat protein; designed switch direction (-1 OFF switch, 1 ON switch): -1; higher = weaker reporter binding; details: Eterna round: R95; input ligand: FMN 200 uM

sequenceText	apparent KD of MS2 coat protein
GUGUAACUACACGGGCUCAACAUGAGGAUCACCCAUGUCAUACACGCAAGCUCUUUGCUUGUCUUAUCUGUCCGUGA [Erriusti] (puzzle: Sensor v3, turn-off variant 1)	16.8 nM
CUGGUCCGAGGAUAUAUGAUGUGAAACAUGAGGAUCACCCAUGUAAUAUUAUGGAAGUAAAUAGAAGGCGGACUAG [Mat - Exclusion 5 - JL mod - D34] (puzzle: Exclusion 5)	28.6 nM
GGUCAAGAACAGAUCCGCGCUGCCAUUGACCGCUCAUUUACAUGAGGAUCACCCAUGUUUUUUGCUCAUCUUGUUAC [Usdila] (puzzle: Sensor v3, turn-off variant 2)	20.2 nM
CUCCUCAUGACGCCCAACCACAUGAGGAUCACCCAUGUGCAGGCUUUUUGUCGUCUUAUAAUAAAACCGAGGAUGCG [Edusveti] (puzzle: Sensor v3, turn-off variant 1)	13.3 nM
ACCUAACAUGAGGAUCACCCAUGUCAGGAUAUCCAAGCGAAAGCAAAAGCGAAAGCAAGGAGAAGGGACAGAGG [ChP 04-04-2015 #8] (puzzle: Exclusion 1)	62.2 nM

====

Consider the following sequences and their measured apparent KD of K4 kissing-loop reporter readings.
system: K4 kissing-loop RNA reporter; test: apparent KD of K4 kissing-loop reporter; higher = weaker reporter binding; conditions: Eterna round: R107; input ligand: arginine 13.2 mM;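 further: bound reporter read as fluorescence of individual clusters on recovered sequencing chips by microscopy, with normalized cluster intensities fitted with a binding model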

sequenceText	apparent KD of K4 kissing-loop reporter, nM
UGUCAUGGAAACAUGAACGUUGAUGUUCGACGAGGACCGGUACGGCCGCCACUCGAGUAAUAGUCAGUGAUGUUGACUAGUCUAA [KL-SSTryp-A form1]	107
ACAGGAUCGAAGAUCCUGAGCAGUCAGGUCCGAGGACCGGUACGGCCGCCACUCGGAGUGAUGUUCCGAAGACUGCAAAAUAAAA [#SwitchBubble 4]	455
GCAGCACCGAGUGAUGUUUGGUUCAGCGUGAAGGAUAUAAUAUCUGUUAGAAGGUCAAGUGAGAUUGUCGCGAAUCAGUUUUGAU [theeternabot_exclusion_KL_FMN_A_41]	248
CCUAUCUCAUACGAUACCAGUCAAUAUAAACGAGUGAUGUUCGAAAUAAUAUGCCAUCACGACCCUUGGCAGCGUAUGGGAUAGG [Ex Theophylline B K4 6]	88.8
GUAGCCCUAUGUGAUACCAGACGGUAUAAAAUCCUGGCGGCCAGUGAUGUUGGCCAUCGCGUCCCUUGGCAGCACCAAGGCUGUA [theeternabot_sameState_KL_Theo_B_18]	143
CUCGACACGGGAAGGAGCGGUUGCGUGUGCCAGUGAUGUUGGAUCAGCAGACUGCCCGGUAGCCAGGUAGGUCGCCUGUGCUGAG [Esbeescexe]	166

====

Consider the following sequences and their measured apparent KD of MS2 coat protein readings.
system: MS2 coat protein; test: apparent KD of MS2 coat protein; higher = weaker reporter binding; conditions: Eterna round: R107; input ligand: arginine 13.2 mM
attributeMeasured: apparent KD of MS2 coat protein (nM)

sequenceText	attributeMeasured	value
AAUUGGGUUGGUGAGGUGGUUGGAGGCGAUACCAGCGUGGAAACACGCCCUUGGCAGCGCCAGGACAUGAGGAUCACCCAUGUUC [Ostrava]	apparent KD of MS2 coat protein	19.6
UACAUGAGGAUCACCCAUGUGUAGAGGGAUACCAGUGACAGUAAGCACCCUUGGCAGCCCGUGAACAAAGGGUGGGCAAAAUAGU [#16 Exclusion-TheophyllineA]	apparent KD of MS2 coat protein	48.2
AAUAAGCAGCUGCCUUCCUCAUGAGCAGAUACCAGCUAGGAAACUAGCCCUUGGCAGCUGCAACAUGAGGAUCACCCAUGUAAUA [(T)'-(M)'-(T1)-(T2)-(M1)-(M2)_Design4]	apparent KD of MS2 coat protein	22.4
UCUUACUUGGUAGAUACCAGCGUGUUAUCUUUCUUUUGACAUGAGGAUCACCCAUGUAUAUGCCCUUGGCAGCUGCAUAGUGUGU [#02 Same State - Theophylline B]	apparent KD of MS2 coat protein	26.9
ACCUCAAUGGAUGAUACCAGCUCAAGGACGAACAUGAGGAUCACCCAUGUGACGUGGUGUAGCCCUUGGCAGCAUACUGACACCU [theeternabot_sameState_MS2_Theo_B_24]	apparent KD of MS2 coat protein	34.6

Measured values drawn from the supplement of paper PMC9170038 for this set.
